# TEST DESCRIPTION: activity coefficient (dimensionless); of the first substance listed, at infinite dilution; xn = mol fraction of the nth substance listed
# CONDITIONS USED: 388.15 K; 101 kPa; Liquid; Chromatography; x1 = 0
PROPERTY: activity coefficient

In the examples that follow, each entry is paired with its recorded activity coefficient.
1) CCCCC [pentane] + CCCCCCCCCCCCCCCCCCC(CCCCCCCCCCCCCCCCCC)CCCCC(CCCCCCCCCCCCCCCCCC)CCCCCCCCCCCCCCCCCC :: 0.338
2) CCCCCCC [heptane] + CCCCCCCCCCCCCCCCCCC(CCCCCCCCCCCCCCCCCC)CCCCC(CCCCCCCCCCCCCCCCCC)CCCCCCCCCCCCCCCCCC :: 0.363
3) CCCCCCCCCCCCCC [tetradecane] + CCCCCCCCCCCCCCCCCCC(CCCCCCCCCCCCCCCCCC)CCCCC(CCCCCCCCCCCCCCCCCC)CCCCCCCCCCCCCCCCCC :: 0.493

P = C[C@H]1CC[C@@H](C)CC1 [cis-1,4-dimethylcyclohexane] + CCCCCCCCCCCCCCCCCCC(CCCCCCCCCCCCCCCCCC)CCCCC(CCCCCCCCCCCCCCCCCC)CCCCCCCCCCCCCCCCCC
Q = C#CCCCCCCC [1-nonyne] + CCCCCCCCCCCCCCCCCCC(CCCCCCCCCCCCCCCCCC)CCCCC(CCCCCCCCCCCCCCCCCC)CCCCCCCCCCCCCCCCCC
Query: Hi! Which is lower in terms of activity coefficient, the first one P or the second one Q ? Selection: enter the item's label.
Result: P

P = C1CC[C@@H]2CCC[C@H]2C1 [trans-bicyclo[4.3.0]nonane] + CCCCCCCCCCCCCCCCCCC(CCCCCCCCCCCCCCCCCC)CCCCC(CCCCCCCCCCCCCCCCCC)CCCCCCCCCCCCCCCCCC
Q = C=CCCCCCCCCCCCC [1-tetradecene] + CCCCCCCCCCCCCCCCCCC(CCCCCCCCCCCCCCCCCC)CCCCC(CCCCCCCCCCCCCCCCCC)CCCCCCCCCCCCCCCCCC
Query: // pick min by activity coefficient: P , Q // respond with label for picked entry
Result: P
